B1: LINE1-mini (parent)
chain: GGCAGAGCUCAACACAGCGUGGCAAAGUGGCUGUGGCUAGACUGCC

variants of: B1; experiment: self-cleavage, relative activity (ratio to wild type); higher = more cleavage; in vitro, sequencing; the parent is a self-cleaving ribozyme
The following variants are listed with their measured self-cleavage values.
RECORDED_ENDPOINT: self-cleavage

SEQUENCE_VARIANT: G21A U34A
REPORTED_MEASUREMENT: 0.08
//
SEQUENCE_VARIANT: C31U U32C
REPORTED_MEASUREMENT: 0.08
//
SEQUENCE_VARIANT: C10G C23A
REPORTED_MEASUREMENT: 0.08
//
SEQUENCE_VARIANT: G21U U43C
REPORTED_MEASUREMENT: 0.2
//
SEQUENCE_VARIANT: U9A A24G
REPORTED_MEASUREMENT: 0.2
//
SEQUENCE_VARIANT: G27A C31G
REPORTED_MEASUREMENT: 0.2
//
SEQUENCE_VARIANT: G36U A39C
REPORTED_MEASUREMENT: 0.08
//
SEQUENCE_VARIANT: C15U U32C
REPORTED_MEASUREMENT: 0.08
//
SEQUENCE_VARIANT: C31A A41G
REPORTED_MEASUREMENT: 0.08
